Values from ChEMBL document CHEMBL3585270

test system: Jurkat; assay: Cytotoxicity against human Jurkat cells assessed as reduction in cell viability by MTT assay; format: cell-based
measurementKind: IC50 (µM)
Give bare numbers, in µM.

Some entries whose results are on file:
COc1ccc(OC)c(/C(COc2ccc3ccccc3c2)=N/O)c1 ... 10.1
O/N=C(\COc1ccc2ccccc2c1)c1ccc(C(F)(F)F)cc1 ... 36.2
O/N=C(\COc1ccc2ccccc2c1)c1ccc(Cl)cc1 ... 37.3

Next up:
**Query** Entry O/N=C(\COc1cccc2ccccc12)c1ccc(F)c(F)c1 has what IC50?
**Result** 42.6

###

test: Cytotoxicity against human NPC-TW01 cells assessed as reduction in cell viability by MTT assay; assay type: cell-based
measurementKind: IC50 (µM)
One number for each entry, in µM.

Some entries whose results are on file:
O/N=C(\COc1cccc2ccccc12)c1ccc(C(F)(F)F)cc1 ... 46.4
O/N=C(\COc1ccc2ccccc2c1)c1ccc(F)c(F)c1 ... 36.1
O/N=C(\COc1ccc2ccccc2c1)c1ccc(Cl)cc1 ... 26

Would you mind listing IC50 for each of the following compounds?
1. O/N=C(\COc1cccc2ccccc12)c1ccc(F)c(F)c1
2. COc1ccc(OC)c(/C(COc2ccc3ccccc3c2)=N/O)c1
3. O/N=C(\COc1ccc2ccccc2c1)c1ccc(C(F)(F)F)cc1

**Result**
[36.8, 16.7, 30.7]

###

target: Nuclear factor erythroid 2-related factor 2 (Homo sapiens) (UniProt Q16236); assay: Activation of Nrf2 in human NPC-TW01 or HONE1 cells expressing ARE-luciferase at 20 uM incubated for 16 hrs by luciferase reporter gene assay relative to untreated control; type: cell-based
Sequence (Q16236 whole entry): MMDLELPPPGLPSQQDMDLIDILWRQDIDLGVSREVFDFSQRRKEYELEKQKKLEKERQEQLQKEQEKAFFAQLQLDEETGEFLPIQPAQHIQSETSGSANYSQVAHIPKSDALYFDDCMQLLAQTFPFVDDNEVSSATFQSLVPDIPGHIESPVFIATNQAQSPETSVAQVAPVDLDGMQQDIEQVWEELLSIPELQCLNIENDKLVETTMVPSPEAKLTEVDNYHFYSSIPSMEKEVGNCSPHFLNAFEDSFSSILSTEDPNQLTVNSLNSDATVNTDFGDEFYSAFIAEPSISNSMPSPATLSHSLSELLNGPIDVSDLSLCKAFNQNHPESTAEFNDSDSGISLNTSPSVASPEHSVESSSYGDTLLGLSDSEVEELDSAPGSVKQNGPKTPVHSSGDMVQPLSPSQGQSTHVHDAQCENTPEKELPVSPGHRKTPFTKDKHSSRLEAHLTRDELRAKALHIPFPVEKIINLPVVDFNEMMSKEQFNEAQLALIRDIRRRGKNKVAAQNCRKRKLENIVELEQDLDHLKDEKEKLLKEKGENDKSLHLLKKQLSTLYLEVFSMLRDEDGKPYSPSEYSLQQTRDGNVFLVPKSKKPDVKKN
measurementKind: fold change (FC)
Answers are plain numbers.

COc1ccc(/C(COc2cccc3ccccc23)=N/O)cc1 ... 1.1
O/N=C(\COc1cccc2ccccc12)c1ccc(-c2ccccc2)cc1 ... 1.19
O/N=C(\COc1ccc2ccccc2c1)c1ccccc1 ... 3.49
COc1ccc(OC)c(/C(COc2cccc3ccccc23)=N/O)c1 ... 0.93
O/N=C(\COc1cccc2ccccc12)c1ccc(Br)cc1 ... 1.03

Would you mind listing fold change (FC) for each of the following compounds?
1. C/C(COc1cccc2ccccc12)=N\O
2. O/N=C(\COc1cccc2ccccc12)c1ccc2ccccc2c1
3. O/N=C(\COc1ccc2ccccc2c1)c1ccc(C(F)(F)F)cc1
4. C/C(COc1ccc2ccccc2c1)=N\O
5. O/N=C(\COc1ccc2ccccc2c1)c1ccc(-c2ccccc2)cc1

**Result**
1.17
1.25
1.05
2.04
1.18

**Query** Entry O/N=C(\COc1cccc2ccccc12)c1ccc(Cl)cc1 has what fold change (FC)?
**Result** 1

###

experiment: Cytotoxicity against human NPC-TW01 cells assessed as reduction in cell viability by MTT assay; type: cell-based
measurementKind: pIC50
Give bare numbers, as −log10 of the molar value.

Would you mind listing pIC50 for each of the following compounds?
1. COc1ccc(OC)c(/C(COc2cccc3ccccc23)=N/O)c1
2. COc1ccc(/C(COc2cccc3ccccc23)=N/O)cc1

**Result**
1: 4.49; 2: 4.49

Would you mind listing pIC50 for each of the following compounds?
1. O/N=C(\COc1ccc2ccccc2c1)c1ccc(Br)cc1
2. O/N=C(\COc1cccc2ccccc12)c1ccc2ccccc2c1

**Result**
4.55
4.44

###

test system: Jurkat; assay: Cytotoxicity against human Jurkat cells assessed as reduction in cell viability by MTT assay; assay type: cell-based
measurementKind: IC50 (µM)
Answers are plain numbers, in µM.

O/N=C(\COc1ccc2ccccc2c1)c1ccc(Br)cc1 ... 47.2
COc1ccc(/C(COc2ccc3ccccc3c2)=N/O)cc1 ... 35.8
COc1ccc(/C(COc2cccc3ccccc23)=N/O)cc1 ... 31.8

Would you mind listing IC50 for each of the following molecules?
1. O/N=C(\COc1ccc2ccccc2c1)c1ccc2ccccc2c1
2. O/N=C(\COc1ccc2ccccc2c1)c1ccc(F)c(F)c1

**Result**
24.3
44.6
